# assay-remarks: soluble on expression in E. coli; label from the status in PepcDB or PDB records
assay-readout: soluble on expression in E. coli

Here are 4 sequences together with their reported answers.
{"columns": ["entry-sequence", "soluble on expression in E. coli"],
 "data": [
  ["MRTALLQNLFSLFPFDLHGDCDVPPARDGIRVSCIINFYGRLNVLAGILWSLAQQDFPRSAFEVILVEDRGGSDEGRALAEEFSSRLPIVYAPLDKQYGLMGYSRNFGLERSRGEFILFLDDDTIILQDDFLKTMVAYFDAQPGVSAIMPHGEASFAFVDDRYDFHDPFFMTSRCTAYRRTVLASLGGFMSSFIGQEDVEFVIRFHAAGNRCAAVPQLAYRHPPLYVTNLGKPMAVGSSFYGIRKRYPLVTWLLAVVNCSRHLPLVLAPSRKYREMGRFGLGFLWGVLTAPFRSGSLNYRLEHHHHHH", "not soluble"],
  ["MSLIFNKNCNVNKETQIEAFAIKNHDKKFVYPMGNIIGVKANTDGVLVLGYEEEDVDYIGGIQIGDNIVKIDNKRIKNSQDVSEILNKIKKSKVEVTFERKNKYKTEVIETKKENGKYKLGLWVRDKISGIGTMTFYDPSMEKFKAIGHAIKDSDTNELLKIKQGYIYKPEQLKIVKASNEKVGKIKGDFNDSNLMGNFSNNSELGISGNITENHNKEFNVANKEKQLIEVGRPQDVKIGDAVILFEDKNKNITSYDIKIESIVYDKGNYRDMVIKVVDDKLLEYTGGIVQGMSGAPIIQNNKIIGAITHVFRDNPKKGYGIFIDEMIKLEGHHHHHH", "soluble"],
  ["MGSDKIHHHHHHSRSTKGVRELSLFNRHTGEYNNGSYWVDGHYQSEVLADFSHLLRDHRQNVAAPMDKRLFDLLYTLKSTLNTDKEIHVISGYRSPKTNAMLAGKSGGVAKKSYHMQGMAMDIAIPGVNLKTIRDAALSLKLGGVGYYPKSGFVHVDCGPVRHW", "not soluble"],
  ["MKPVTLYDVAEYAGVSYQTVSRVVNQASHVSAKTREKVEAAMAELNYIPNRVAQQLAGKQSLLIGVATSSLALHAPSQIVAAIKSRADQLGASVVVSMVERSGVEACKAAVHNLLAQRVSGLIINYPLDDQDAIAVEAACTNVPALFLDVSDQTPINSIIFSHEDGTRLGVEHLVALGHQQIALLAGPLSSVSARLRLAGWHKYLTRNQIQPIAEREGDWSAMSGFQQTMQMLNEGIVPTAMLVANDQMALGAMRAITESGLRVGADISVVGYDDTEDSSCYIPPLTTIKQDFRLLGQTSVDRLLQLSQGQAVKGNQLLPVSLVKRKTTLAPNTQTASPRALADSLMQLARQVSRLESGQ", "soluble"]
]}

Return reported soluble on expression in E. coli; argument: MFMFEKPHGMRDTLPGLYETKKKVRRSLTDLIDKWGYQFMETPTLEFYDTVGVQSAIEEQQLFKLLDQDGKTLVLRPDMTGPIARVAASKLLKHGHPLRVGYAANVFRAQEREGGRPAEFEQVGVELIGDGTTSADAEVIALVVGALKNAGLASFKIAIGHAGIADALFVEVLGNVERADVLRRFLYEKNYVGYREHVKSLPLSSIDKSRLLELLELRGGIEVCGRAEEIVDSAQGKSVVDELKALWDILEDYGCTENVRLDLNMVSHMSYYTGILFEVYAENVGFVIGSGGRYNKLLGHFDSPAPATGFGLRIDRLIEALHMKDEPCEIDAVIFSKEQRAQAIAYANEERMKGNKVVLQDLSGIENIDQMTKSFANVTYFIGARKEEQNG not soluble

// soluble on expression in E. coli lookup, key: MGSDKIHHHHHHMLAENLKSLYLDEWNRYVGHEFVRRMEHGDLPLENFKFYLVQDSLYVEEMLRAVMRSTELMPNDMAIRILSSVVLGRDKGMETHAFLEKELGVEKSSRMTMTTYSYTRHLRYSSTIGWPQFLAAWIPCMWGYSEIGKTVLNSPNRYYRTWAEFYASKEYADRVSVILEAMDRFNGDITEIKDYFLISLKFEQMFWQAAFDMEKPI not soluble

Data request, read-out soluble on expression in E. coli, for IDGDSITNKQIKKFWRQKQIIEEDHLYSAIKAAARVRARNLSDEDYKRFEESLDMEDLETEDHQGLKDWWTKSKYAYLNQPALGSADSLKRKRFSTYTPNCFSFKPCNPLYATSLNVF not soluble

Item SKIASFDVDAQKGFTPLCPDELPVPGGDAIGGALNQLASRAALRLGSKDAHSPKAAWVVESAEQMLRPLAYPDADLTWVSHCVPGTPGFELLDELPRPIDYDFFVWKGVEPDLHPYGACYHDLAERRSTGVIEYLRQNGVSHVLVGGLALDYCVKNTALQLRRAGFEVLLYLPACRAIAEDTAQRACDEMRDAGVILCADLERLDSALA has what recorded soluble on expression in E. coli? not soluble

// lookup soluble on expression in E. coli for MPRARCKRCLRPTGYCLCALIPQIESRTRVLILQHPDEVSHALNTARLAALGLVNAQLCVGEVFDDLHTLLNPPGYQARLLFPGDAAETLTAYAPDATPMLLVVPDGTWRKARKLLHLNPLLAALPRVTLGSVPASRYRLRKAPGPEALSTLEAIVHTLQTLEAPNAFEALLKPFDALIDGQIQAMGNDTYQRNHGNQRLEHHHHHH not soluble

Look up soluble on expression in E. coli for this sequence: GKRSHSMKRNPNAPVTKAGWLFKQASSGVKQWNKRWFVLVDRCLFYYKDEKEESILGSIPLLSFRVAAVQPSDNISRKHTFKAEHAGVRTYFFSAESPEEQEAWIQAMGEAARVQ soluble

Look up soluble on expression in E. coli: ARKIGIIGLGNVGAAVAHGLIAQGVADDYVFIDANEAKVKADQIDFQDAMANLEAHGNIVINDWAALADADVVISTLGNIKLQQDNPTGDRFAELKFTSSMVQSVGTNLKESGFHGVLVVISNPVDVITALFQHVTGFPAHKVIGTGTLLDTARMQRAVGEAFDLDPRSVSGYNLGEHGNSQFVAWSTVRVMGQPIVTLADAGDIDLAAIEEEARKGGFTVLNGKGYTSYGVATSAIRIAKAVMADAHAELVVSNRRDDMGMYLSYPAIIGRDGVLAETTLDLTTDEQEKLLQSRDYIQQRFDEIVDTL soluble

Using the record for MTTLLIVPGFGGSGPLHWQSWIAQKYTSSLWVNDLPLLEPKIHIWADAISRAMDNIEGKILILAHSFGCLASSLAIARHPQRVVAAILVAPASPESFSENGHILPEHDDTPTIRNLLPKQTLGICGLVIASENDPWMPFNQAASLAKSFGLPTINLGLSGHINVDSGHGQWPLIDVLVGNFLFQNENVPPIPSIKTAQDKTTPHLFPNGILEHHHHHH , report its soluble on expression in E. coli. not soluble
